- assay explanation: TIMS collisional cross section (CCS, N2) of the lipid ion; higher = larger ion cross section
- test context: sample type: HeLa; ionization mode: positive; one isomer drawn
measure: TIMS collisional cross section (Å²)
Numbers only; they are read as Å².

These recorded examples may help you get a feel for the data.
compound	number
CCCCC/C=C\C/C=C\C/C=C\C/C=C\CCCC(=O)O[C@@H](CO)COC(=O)CCCCCCCCCCCCCCC [DG 16:0_20:4_0:0] (ion (formula + adduct): [C39H68O5+NH4] 1+)	263.4
CC/C=C\C/C=C\C/C=C\C/C=C\CCCCC(=O)O[C@H](COC(=O)CCCCCCCCCCCCC)COP(=O)([O-])OCC[N+](C)(C)C [PC 14:0@_18:4] (ion (formula + adduct): [C40H72NO8P+H] 1+)	278.8

# TIMS collisional cross section lookup, item CCCCCCCCCCCCCCCC(=O)OCC(CO)OC(=O)CCCCCCCCCCCCCCC (stereo not drawn) [DG 16:0_16:0_0:0] (ion (formula + adduct): [C35H68O5+NH4] 1+)
259
